experimental.system: T1, purified CD160 (SPR analyte) (UniProt O95971 25-159, limits assumed)
T1 sequence (looked up): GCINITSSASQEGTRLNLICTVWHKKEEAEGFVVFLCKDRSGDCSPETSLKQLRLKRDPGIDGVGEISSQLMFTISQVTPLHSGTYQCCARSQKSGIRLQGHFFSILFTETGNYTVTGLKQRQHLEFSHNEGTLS
assay.text: SPR, Biacore T200, scFv captured on CM5 chip, CD160 as analyte, single-cycle kinetics, 1:1 Langmuir fit
reported.metric: kon

See these solved cases before continuing.
{"binder": "anti-CD160 scFv clone 11 (PB10) (scFv, Rat scFv, VH-linker-VL) scFv: EVQLVESGGGLVQPGRSLKLSCAASGFTFSNYGMAWVRQAPTKGLEWVASINTSGGSTYYRDSVKGRFTISRDNAKSTLYLQMDSLRSEDTATYYCATIYYHDGSYYYAGWFAYWGQGTLVTVSSGGGGSGGGGSGGGGSDIVLTQSPALAVSPGERVSISCRASESVSTLMHWYQQKLGQQPKLLIYGASNLESGVPARFSGSGSGTDFTLNIDPVEADDIATYFCQQSWNGPWTFGGGTKLELKR", "kon": "137000 M⁻¹ s⁻¹"}
{"binder": "anti-CD160 scFv clone 9 (PB6) (scFv, Rat scFv, VH-linker-VL) scFv: EVQLVESGGGLVQPGRSLKLSCAASGFTFSNYAMAWVRQAPTKGLEWVASISSGGGDTYYRDSVKGRFTISRDNSKNTQYLQMDSLRSEDTATYYCATHNYESTVLITWGQGASVTVSSGGGGSGGGGSGGGGSEIVLTQSPTTTAASPGERVTITCRASSSVSYMHWYQQKPGASPKPWIYETSKLASGVPDRFSGSGSGTSYSLTINNMEAEDAATYYCQQWNYPSMYTFGAGTKLEIKR", "kon": "408000 M⁻¹ s⁻¹"}
{"binder": "anti-CD160 scFv clone 8 (PB9) (scFv, Rat scFv, VH-linker-VL) scFv: QVNLQESGPGLVQPSETLSLTCTVSGFSLTNYGINWFRQPPGKGLEWMGTIWNDGGTDYNSALKSRLSISRDTSKSQVFLKMNSLQTEDTAIYFCARGMDAWGQGASVTVSSGGGGSGGGGSGGGGSDIQMTQSPASLSASLGETVSIECLASEDIYNNLAWYQQKPGKSPQLLIYYANSLQDGVPSRFSGSGSGTQYSLKINSLQSEDVATYFCQQYNNYPFTFGSGTKLELKR", "kon": "1.63e+06 M⁻¹ s⁻¹"}

Problem: Input anti-CD160 scFv clone 2 (C25) (scFv) scFv: EVQLVESGGDLVQPGRSLKLSCAASGFTFSNYGMAWVRQAPTKGLEWVASVSNGGGNTYYRDSVKGRFTISRDNAKNTQYLQMDSLRSEDTATYYCVTHNYESTVFDYWGQGAMVTVSSGGGGSGGGGSGGGGSEIVLTQSPTTMTASPGEKVTITCRASSSVSYMHWYQQKPGASPKPWIYETSKLASGVPDRFSGSGSGTSYSLTINNMEAEDAATYYCQQWNYPSMYTFGPGTKLELKR , output reported kon.
Result: 249000 M⁻¹ s⁻¹
